The reader will find reported IC50 values listed item by item below.
Molecular target: c-KIT kinase (uKIT) (Homo sapiens (Human))
Sequence (P10721 other isoform, or with tags, fused parts or gaps): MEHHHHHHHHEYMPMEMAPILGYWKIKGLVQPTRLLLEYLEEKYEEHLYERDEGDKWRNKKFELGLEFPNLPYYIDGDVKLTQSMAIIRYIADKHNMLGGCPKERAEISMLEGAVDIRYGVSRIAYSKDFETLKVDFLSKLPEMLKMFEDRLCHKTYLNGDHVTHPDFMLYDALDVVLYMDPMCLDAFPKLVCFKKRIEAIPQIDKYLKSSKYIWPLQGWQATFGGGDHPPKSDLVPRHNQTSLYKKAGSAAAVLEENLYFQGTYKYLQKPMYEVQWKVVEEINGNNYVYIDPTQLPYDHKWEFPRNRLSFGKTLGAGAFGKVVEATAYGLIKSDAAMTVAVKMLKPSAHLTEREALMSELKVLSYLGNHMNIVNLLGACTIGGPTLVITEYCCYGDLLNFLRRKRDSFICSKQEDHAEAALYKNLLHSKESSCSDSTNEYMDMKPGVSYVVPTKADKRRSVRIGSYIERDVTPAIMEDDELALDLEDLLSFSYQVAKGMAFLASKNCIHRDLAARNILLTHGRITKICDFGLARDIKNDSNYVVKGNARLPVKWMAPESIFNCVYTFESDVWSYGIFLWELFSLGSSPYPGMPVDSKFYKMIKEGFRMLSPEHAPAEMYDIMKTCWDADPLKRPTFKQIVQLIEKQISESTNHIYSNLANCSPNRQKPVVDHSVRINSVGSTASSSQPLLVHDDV

Worked examples follow.
COCCOc1cc(F)c2c(Nc3ccc(NC(=O)CC(=O)N(C(C)C)C(C)C)cc3)ncnc2c1 [Example 163]    100 to 1000 nM
COCCOc1cc(F)c2c(Nc3ccc(NC(=O)CC(=O)NC4CCC4(C)C)cc3)ncnc2c1 (stereo not shown) [Example 168]    10 to 100 nM
CN1CC[C@@H](Oc2cc(F)c3c(Nc4ccc(NC(=O)NCCC(C)(C)F)cc4)ncnc3c2)C1 [Example 173]    ≤ 10 nM

Next item in the queue.
COCCOc1cc(F)c2c(Nc3ccc(NC(=O)CC(=O)NCC(C)(C)C(F)(F)F)cc3)ncnc2c1 [Example 88] tested on c-KIT kinase (uKIT) (Homo sapiens (Human)) gave IC50: 10 to 100 nM

====

System: Ba/F3 KIT mutant cells
Experiment: Ba/F3 mutant KIT Cell Proliferation Assays (resazurin)
Assay type: cell-based
Settings: Mus musculus, BaF3; Ba/F3 KIT AYdup mutant cell proliferation; read-out: AYdup IC50
The reader will find reported IC50 values listed item by item below.

Worked examples follow.
COCCOc1cc(F)c2c(Nc3ccc(NC(=O)CC(=O)NC4CC(C)(C)C4)cc3)ncnc2c1    ≤ 10 nM
CC(C)(F)CCNC(=O)Nc1ccc(Nc2ncnc3cc(O[C@H]4CCOC4)cc(F)c23)cc1    ≤ 10 nM
COCCOc1cc(F)c2c(Nc3ccc(NC(=O)NCCC(C)(C)C#N)cc3)ncnc2c1    ≤ 10 nM

Note to self: IC50 recorded for CC(C)(F)CCNC(=O)Nc1ccc(Nc2ncnc3cc(OC[C@@H]4CCCO4)cc(F)c23)cc1 was ≤ 10 nM

====

Tested on: Ba/F3 KIT mutant cells
Test: Ba/F3 mutant KIT Cell Proliferation Assays (resazurin)
Type: cell-based
Details: Mus musculus, BaF3; Ba/F3 KIT exon11del-V654A mutant cell proliferation; read-out: exon11del-V654A IC50
The reader will find reported IC50 values listed item by item below.

Worked examples follow.
COCCOc1cc(F)c2c(Nc3ccc(NC(=O)CNC(=O)CC(C)C)cc3)ncnc2c1    ≤ 10 nM
COCCOc1cc(F)c2c(Nc3ccc(NC(=O)N[C@H]4CC[C@H](C(F)(F)F)CC4)cc3)ncnc2c1    10 to 100 nM
COCCOc1cc(F)c2c(Nc3ccc(NC(=O)CC(=O)N4CCC(C)(C)C4)cc3)ncnc2c1    ≤ 10 nM
COCCOc1cc(F)c2c(Nc3ccc(NC(=O)CC(=O)NCC4(C)CCOCC4)cc3)ncnc2c1    10 to 100 nM
COCCOc1cc(F)c2c(Nc3ccc(NC(=O)NCCC(C)C)cc3)ncnc2c1    ≤ 10 nM

Note to self: IC50 recorded for COCCOc1cc(F)c2c(Nc3ccc(NC(=O)CC(=O)NC(C)(C)C(F)(F)F)cc3)ncnc2c1 was ≤ 10 nM

Note to self: IC50 recorded for COCCOc1cc(F)c2c(Nc3ccc(NC(=O)CC(=O)NCC(F)(F)F)cc3)ncnc2c1 was 10 to 100 nM

====

Tested on: Ba/F3 KIT mutant cells
Assay: Ba/F3 mutant KIT Cell Proliferation Assays (resazurin)
Format: cell-based
Conditions: Mus musculus, BaF3; Ba/F3 KIT exon11del-V654A mutant cell proliferation; read-out: exon11del-V654A IC50
ENDPOINT_NAME: IC50

Worked examples follow.
CC(C)(F)CCNC(=O)Nc1ccc(Nc2ncnc3cc(OCCN4CCCC4)cc(F)c23)cc1    10 to 100 nM
COCCOc1cc(F)c2c(Nc3ccc(NC(=O)CC(=O)NC4(C)COC4)cc3)ncnc2c1    100 to 1000 nM
COCCOc1cc(F)c2c(Nc3ccc(NC(=O)CC(=O)NCC4CCOCC4)cc3)ncnc2c1    10 to 100 nM

COCCOc1cc(F)c2c(Nc3ccc(NC(=O)C(=O)NC(C)(C)C)cc3)ncnc2c1 tested on Ba/F3 KIT mutant cells gave IC50: 100 to 1000 nM

COCCOc1ccc2ncnc(Nc3ccc(NC(=O)CC(=O)NC4CCCC4)cc3)c2c1F tested on Ba/F3 KIT mutant cells gave IC50: > 1000 nM

COc1cc(F)c2c(Nc3ccc(NC(=O)NCCC(C)(C)C#N)cc3)ncnc2c1 tested on Ba/F3 KIT mutant cells gave IC50: 10 to 100 nM

COCCOc1cc(F)c2c(Nc3ccc(NC(=O)COCCC(C)C)cc3)ncnc2c1 tested on Ba/F3 KIT mutant cells gave IC50: 10 to 100 nM

CC(C)(F)CCNC(=O)Nc1ccc(Nc2ncnc3cc(O[C@@H]4CCOC4)cc(F)c23)cc1 tested on Ba/F3 KIT mutant cells gave IC50: > 1000 nM
